Reference source: PubChem BioAssay AID1361

# test method notes: blockers of mitochondrial fusion, WT vs mutant – cell-based, chemical genetic, wild-type and mutant, confirmation (AID 1361)
# study conditions: Cell-based mitochondrial fusion phenotype, imaging, WT cells
Active and inactive are the calls of the source. No rule for the calls is given here.
Choose one outcome from this list and give only that: active, inactive

molecule	label
CCN1C(=O)S/C(=C/c2c(OCc3ccc(C(=O)O)cc3)ccc3ccccc23)C1=O	active

For "COc1ccc(Cc2nn[nH]n2)cc1" , which call appears in the assay record?
inactive

For "CCCCCCc1nc2ccccc2c(=O)n1NC(=O)c1c(O)c2cccc3c2n(c1=O)CCC3" , which call appears in the assay record?
active

For "c1ccc(CNc2nc(-c3cccs3)nc3ccccc23)cc1" , which call appears in the assay record?
inactive

For CC(C)Oc1ccc(C(=O)NC2(C(F)(F)F)NC(=O)N(CCCc3ccccc3)C2=O)cc1 (stereo not drawn) , which call appears in the assay record?
active
